tested on: E. coli 94393; type: cell-based, Escherichia coli; details: UTBLP in combination with novobiocin
Non-standard residues stand in square brackets, D forms with d. Residues, ends and D or L forms follow the SMILES beside them. *: point of attachment. Lys(Me3) = C[N+](C)(C)CCCC[C@H](N)C(=O)O; Lys(Me2) = CN(C)CCCC[C@H](N)C(=O)O; Lys(Me) = CNCCCC[C@H](N)C(=O)O; Octanoyl = CCCCCCCC(=O)*
PROPERTY_NAME: MICUTBLP [MICcombo] (µg/mL)
Entry rule: numbers only, all in µg/mL.

Record lookup: for E. coli 94393, what MICUTBLP [MICcombo] belongs to CCCCCCCC(=O)NCCCC[C@H](NC(=O)CCCCCCC)C(=O)N[C@@H](CCCC[N+](C)(C)C)C(=O)N[C@@H](CCCC[N+](C)(C)C)C(=O)N[C@@H](CCCC[N+](C)(C)C)C(=O)N[C@@H](CCCC[N+](C)(C)C)C(N)=O [UTBLP 8] (Octanoyl-K(Octanoyl)[Lys(Me3)][Lys(Me3)][Lys(Me3)][Lys(Me3)]-NH2) ?
16

For CCCCCCCC(=O)N[C@@H](CCCCN)C(=O)NCCCN(CCCNC(=O)[C@H](CCCCN)NC(=O)CCCCCCC)CC(=O)N[C@@H](CCCCN)C(N)=O [UTBLP 1] then?
8

Now this one: CCCCCCCC(=O)NCCCC[C@H](NC(=O)CCCCCCC)C(=O)N[C@@H](CCCCN(C)C)C(=O)N[C@@H](CCCCN(C)C)C(=O)N[C@@H](CCCCN(C)C)C(=O)N[C@@H](CCCCN(C)C)C(N)=O [UTBLP 7] (Octanoyl-K(Octanoyl)[Lys(Me2)][Lys(Me2)][Lys(Me2)][Lys(Me2)]-NH2)
4

What would you report for CCCCCCCC(=O)N[C@@H](CCCCNC)C(=O)NCCCN(CCCNC(=O)[C@H](CCCCNC)NC(=O)CCCCCCC)CC(=O)N[C@@H](CCCCNC)C(N)=O [UTBLP 2] ?
16

Try this compound next: CCCCCCCC(=O)N[C@@H](CCCCN(C)C)C(=O)NCCCN(CCCNC(=O)[C@H](CCCCN(C)C)NC(=O)CCCCCCC)CC(=O)N[C@@H](CCCCN(C)C)C(N)=O [UTBLP 3]
16

Also check CCCCCCCC(=O)NCCCC[C@H](NC(=O)CCCCCCC)C(=O)N[C@@H](CCCCN)C(=O)N[C@@H](CCCCN)C(=O)N[C@@H](CCCCN)C(=O)N[C@@H](CCCCN)C(N)=O [UTBLP 5] (Octanoyl-K(Octanoyl)KKKK-NH2)
1

// same read-out, input: CCCCCCCC(=O)NCCCC[C@H](NC(=O)CCCCCCC)C(=O)N[C@@H](CCCCNC)C(=O)N[C@@H](CCCCNC)C(=O)N[C@@H](CCCCNC)C(=O)N[C@@H](CCCCNC)C(N)=O [UTBLP 6] (Octanoyl-K(Octanoyl)[Lys(Me)][Lys(Me)][Lys(Me)][Lys(Me)]-NH2)
4

====

test system: E. cloacae 118564; experiment: microbe, parasite or virus in culture; format: cell-based, Enterobacter cloacae; conditions: Enterobacter cloacae, 18 h; E. cloacae 118564; read-out: MICs of various antibiotics
Please respond with reported MIC for every item in the list.
Report only the number, with the unit µg/mL understood.

GET /values?readout=MIC&item= CNC(C)C1CCC(N)C(OC2C(N)CC(N)C(OC3OCC(C)(O)C(NC)C3O)C2O)O1 (centres unmarked)
1

Query NCC[C@H](O)C(=O)N[C@@H]1C[C@H](N)[C@@H](O[C@H]2O[C@H](CN)[C@@H](O)[C@H](O)[C@H]2O)[C@H](O)[C@H]1O[C@H]1O[C@H](CO)[C@@H](O)[C@H](N)[C@H]1O next
2

// query: COc1c(N2C[C@@H]3CCCN[C@@H]3C2)c(F)cc2c(=O)c(C(=O)O)cn(C3CC3)c12
0.12

Another molecule to check: C[C@@H](O)[C@H]1C(=O)N2C(C(=O)O)=C(S[C@@H]3CN[C@H](C(=O)N(C)C)C3)[C@H](C)[C@H]12
0.12

CO/N=C(\C(=O)N[C@@H]1C(=O)N2C(C(=O)[O-])=C(C[N+]3(C)CCCC3)CS[C@H]12)c1csc(N)n1 [CPM, cefepime] ?
0.25

Request: CC(C)(O/N=C(\C(=O)N[C@@H]1C(=O)N2C(C(=O)[O-])=C(C[n+]3ccccc3)CS[C@H]12)c1csc(N)n1)C(=O)O
0.5

Try this molecule next: NC[C@H]1O[C@H](O[C@H]2[C@H](O)[C@@H](O[C@H]3O[C@H](CO)[C@@H](O)[C@H](N)[C@H]3O)[C@H](N)C[C@@H]2N)[C@H](N)C[C@@H]1O
1

Now consider C[C@H]1c2cccc(O)c2C(=O)C2=C(O)[C@]3(O)C(=O)C(C(N)=O)=C(O)[C@@H](N(C)C)[C@@H]3[C@@H](O)[C@@H]21 .
4

====

system: E. coli ATCC 25922; format: cell-based, Escherichia coli; conditions: UTBLP in combination with rifampicin
Non-standard residues stand in square brackets, D forms with d. Residues, ends and D or L forms follow the SMILES beside them. *: point of attachment. Lys(Me3) = C[N+](C)(C)CCCC[C@H](N)C(=O)O; Octanoyl = CCCCCCCC(=O)*
Exercise: state measured MICUTBLP [MICcombo] for each of the compounds provided.
Give a bare numeral; the unit µg/mL is implied.

Suppose we examine the compound CCCCCCCC(=O)N[C@@H](CCCCN(C)C)C(=O)NCCCN(CCCNC(=O)[C@H](CCCCN(C)C)NC(=O)CCCCCCC)CC(=O)N[C@@H](CCCCN(C)C)C(N)=O ; what MICUTBLP [MICcombo] value has been reported?
16

Do the same for CCCCCCCC(=O)NCCCC[C@H](NC(=O)CCCCCCC)C(=O)N[C@@H](CCCC[N+](C)(C)C)C(=O)N[C@@H](CCCC[N+](C)(C)C)C(=O)N[C@@H](CCCC[N+](C)(C)C)C(=O)N[C@@H](CCCC[N+](C)(C)C)C(N)=O [UTBLP 8] (Octanoyl-K(Octanoyl)[Lys(Me3)][Lys(Me3)][Lys(Me3)][Lys(Me3)]-NH2) please
16

Further, for CCCCCCCC(=O)N[C@@H](CCCCN)C(=O)NCCCN(CCCNC(=O)[C@H](CCCCN)NC(=O)CCCCCCC)CC(=O)N[C@@H](CCCCN)C(N)=O ?
8

====

system: P. aeruginosa PA259-96196; assay type: cell-based, Pseudomonas aeruginosa; conditions: UTBLP in combination with novobiocin
Non-standard residues stand in square brackets, D forms with d. Residues, ends and D or L forms follow the SMILES beside them. *: point of attachment. Lys(Me3) = C[N+](C)(C)CCCC[C@H](N)C(=O)O; Lys(Me2) = CN(C)CCCC[C@H](N)C(=O)O; Lys(Me) = CNCCCC[C@H](N)C(=O)O; Octanoyl = CCCCCCCC(=O)*
Field: MICUTBLP [MICcombo]. Provide a value for each of the compounds that follow.
Express it in µg/mL; write the number only.

For CCCCCCCC(=O)NCCCC[C@H](NC(=O)CCCCCCC)C(=O)N[C@@H](CCCCN(C)C)C(=O)N[C@@H](CCCCN(C)C)C(=O)N[C@@H](CCCCN(C)C)C(=O)N[C@@H](CCCCN(C)C)C(N)=O [UTBLP 7] (Octanoyl-K(Octanoyl)[Lys(Me2)][Lys(Me2)][Lys(Me2)][Lys(Me2)]-NH2) , what is its reported MICUTBLP [MICcombo]?
16

Input CCCCCCCC(=O)N[C@@H](CCCCN(C)C)C(=O)NCCCN(CCCNC(=O)[C@H](CCCCN(C)C)NC(=O)CCCCCCC)CC(=O)N[C@@H](CCCCN(C)C)C(N)=O [UTBLP 3]
0.25

Next record, please: CCCCCCCC(=O)NCCCC[C@H](NC(=O)CCCCCCC)C(=O)N[C@@H](CCCCN)C(=O)N[C@@H](CCCCN)C(=O)N[C@@H](CCCCN)C(=O)N[C@@H](CCCCN)C(N)=O [UTBLP 5] (Octanoyl-K(Octanoyl)KKKK-NH2)
4

Also CCCCCCCC(=O)NCCCC[C@H](NC(=O)CCCCCCC)C(=O)N[C@@H](CCCC[N+](C)(C)C)C(=O)N[C@@H](CCCC[N+](C)(C)C)C(=O)N[C@@H](CCCC[N+](C)(C)C)C(=O)N[C@@H](CCCC[N+](C)(C)C)C(N)=O [UTBLP 8] (Octanoyl-K(Octanoyl)[Lys(Me3)][Lys(Me3)][Lys(Me3)][Lys(Me3)]-NH2) , if possible.
16

Next compound up: CCCCCCCC(=O)N[C@@H](CCCCN)C(=O)NCCCN(CCCNC(=O)[C@H](CCCCN)NC(=O)CCCCCCC)CC(=O)N[C@@H](CCCCN)C(N)=O [UTBLP 1]
8

Request: CCCCCCCC(=O)NCCCC[C@H](NC(=O)CCCCCCC)C(=O)N[C@@H](CCCCNC)C(=O)N[C@@H](CCCCNC)C(=O)N[C@@H](CCCCNC)C(=O)N[C@@H](CCCCNC)C(N)=O [UTBLP 6] (Octanoyl-K(Octanoyl)[Lys(Me)][Lys(Me)][Lys(Me)][Lys(Me)]-NH2)
16

# repeat for CCCCCCCC(=O)N[C@@H](CCCCNC)C(=O)NCCCN(CCCNC(=O)[C@H](CCCCNC)NC(=O)CCCCCCC)CC(=O)N[C@@H](CCCCNC)C(N)=O [UTBLP 2]
16

Values from paper PMC8963254
